# System: DeltatarO mutant
# experimentNotes: S. aureus survival, RN4220 and DeltatarO strains – OD600, teichoic acid synthesis inhibitors, primary screen (AID 463173)
# experimentalSetup: S. aureus RN4220 wild type/DeltatarO growth, OD600, 18 h, active compounds read low, screened at 18.75 µg/mL (by protocol)
Screen size: about 52,000 compounds; about 4,300 (8.3%) were called active. Shown is part of a subset that was picked to be rich in actives.
parameterMeasured: survival (%)
Report the value in % with no unit label.

Known results for molecules:
COC(=O)CSc1nnc(-c2ccccc2)n1C	97
Cc1cc(NC(=O)CCNS(=O)(=O)c2ccc3c(c2)CCCC(=O)N3)ccc1Br	76
CCC(C)(C)n1nnnc1CN(Cc1ccc(Cl)cc1)CC1CCCO1 (stereo unspecified)	76
COc1cc(C(CC(=O)Nc2ccc(C)c(F)c2)N2Cc3ccccc3C2=O)cc(OC)c1OC (stereo unspecified)	93

For the molecule shown here, COc1ccc(N=C2SC(C(=O)Nc3ccccc3)CC(=O)N2C)cc1 (stereo unspecified) , give the reported survival. 91

For the molecule shown here, CCOc1ccc(CNC(=O)c2cccc(NC(=O)N3CCSc4ncccc43)c2)cc1OC , give the reported survival. 92
